- System: OVCAR-8 ovarian
- test_summary: NCI-60 one-dose screen, 48 h (100 = growth as untreated, 0 = no growth, -100 = all killed)
- measurement_parameters: 10 µM unless noted
- Description: Growth inhibition of the OVCAR-8 human tumor cell line is measured as a screen for anti-cancer activity. Cells are grown in 96 well plates and exposed to the test compound for 48 hours. Compounds are tested at a single concentration, which is 10^-5 M for most compounds. The reported endpoint is percent growth (GI% or GIPRCNT), where numbers from 0 - 100% represent growth inhibition, and numbers from -100% - 0 represent cell death. For example, a value of 40 represents 60% growth inhibition. […]
About 83,000 compounds went through this panel and 20% of them were active in at least one assay; those are over-represented in the sample as a whole. Active and inactive are the calls of the source. How the source made its calls: active means growth percent below 10; inactive means the rest.
quantity_kind: growth

1. CC(=O)Cc1ccc2c(c1)OCO2 = 96.6% (inactive)
2. CC[C@H](C)[C@H](NC(=O)[C@H]1CCCCN1C)C(=O)N(C)[C@H](CCc1nc(C(=O)N[C@@H](Cc2ccccc2)C[C@H](C)C(=O)O)cs1)C(C)C = 15.8% (inactive)
3. O=c1[nH]c(=O)[nH]c(=O)[nH]1 = 106% (inactive)
4. C/C=C(/C)C(=O)O[C@H]1CC[C@@]2(C)[C@@H]3CC[C@H]4[C@]5(O)C[C@H](O)[C@@]6(O)[C@@H](CN7C[C@@H](C)CC[C@H]7[C@@]6(C)O)[C@]5(O)C[C@@]42O[C@@]13O = 91.9% (inactive)
5. CCCn1cc2c3c(cccc31)[C@H]1C[C@@H](C)CN(C)[C@@H]1C2 = 89.1% (inactive)
6. O=C(O)C(F)F = 105% (inactive)
7. N[C@@H](CCC(=O)CCl)C(=O)O = 108% [20 µM] (inactive)
8. CCC1(CCSC#N)C(=O)NC(=O)NC1=O = 102% (inactive)
9. O=P(O)(Nc1ccccc1)Nc1ccccc1 = 103% (inactive)
10. CC[C@H](CC[C@@H](C)[C@H]1CC[C@H]2[C@@H]3CC[C@H]4C[C@]5(CC[C@]4(C)[C@H]3CC[C@]12C)OO[C@](C)(C(F)(F)F)O5)C(C)C = 97% (inactive)
11. COc1ccc2c(c1)C1(C)CCN(C)CC(C1)C2O (stereo not drawn) = 101% (inactive)
12. C=CC[PH+](c1ccccc1)c1ccccc1.C=CC[PH+](c1ccccc1)c1ccccc1.[Pt+2].[S-]c1ncccn1.[S-]c1ncccn1 = 1.96% (active)
13. COC(=O)C1=CCCN(C)C1 = 105% (inactive)
14. COC12CC3C4=CCOC5CC(=O)N6c7ccccc7C1(CCN2C4)C6C53 (stereo not drawn) = 91.8% (inactive)
15. CC[C@H](C)[C@H](NC(=O)CN(C)C)C(=O)N(C)[C@H](C[C@@H](OC(C)=O)c1nc(C(=O)NC23CC(C(=O)OC)(C2)C3)cs1)C(C)C = 19.1% (inactive)
16. CC[C@H](C)[C@H](NC(=O)C12CC(NC)(C1)C2)C(=O)N(C)[C@H](C[C@@H](OC(C)=O)c1nc(C(=O)N[C@@H](Cc2ccccc2)C[C@H](C)C(=O)OC)cs1)C(C)C = 17.5% (inactive)
17. Cn1cc(C(=O)C[n+]2ccccc2)c2ccccc21 = 114% (inactive)
18. O=[N+]([O-])c1ccc(P(=O)(O)O)cc1 = 103% (inactive)

###

- System: MCF7 breast
- test_summary: NCI-60 one-dose screen, 48 h (100 = growth as untreated, 0 = no growth, -100 = all killed)
- measurement_parameters: 10 µM unless noted
About 83,000 compounds went through this panel and 20% of them were active in at least one assay; those are over-represented in the sample as a whole.
Threshold 50%: growth strictly smaller gives condition met, otherwise condition not met.

1) O=P(O)(Nc1ccccc1)Nc1ccccc1 = condition not met
2) C[C@]12CC[C@H](O)C[C@@H]1CC[C@@H]1[C@@H]2CC[C@]2(C)OC(=O)CC[C@@H]12 = condition not met
3) COC1C(O)CC(OC2CC(Oc3cc4cc5c(c(O)c4c(O)c3C)C(=O)[C@@H](OC3CC(OC4CC(OC6CC(C)(O)C(OC(C)=O)C(C)O6)C(O)C(C)O4)C(O)C(C)O3)[C@H]([C@H](OC)C(=O)[C@@H](O)[C@@H](C)O)C5)OC(C)C2OC(C)=O)OC1C (some centres undefined) = condition met
4) COc1cc(/C=C\[N+](=O)[O-])ccc1OCc1ccccc1 = condition met
5) Nc1c(Cl)c(Cl)nc(C(=O)O)c1Cl = condition not met
6) COC12CC3(C)C(C4=CC(=O)OC4)CCC3(O)C3CCC4=CC(=O)CCC4(CO1)C32 (centres undefined) = condition not met
7) CNC(=O)O/N=C(\SC)C(=O)N(C)C = condition not met
8) CCCN1C(=O)NC(=O)C(CC)(N2C(=O)c3c(F)c(F)c(F)c(F)c3C2=O)C1=O (centres undefined) = condition met
9) C[C@]12CCc3nc(-c4ccc(O)c(O)c4)sc3C1=CC[C@@H]1[C@@H]2CC[C@]2(C)C(=O)CC[C@@H]12 = condition met
10) C[C@]12CC[C@@H](OC(=O)N(CCCl)N=O)C[C@@H]1CC[C@@H]1[C@@H]2CC[C@]2(C)C(=O)CC[C@@H]12 = condition met
11) N#CCCc1ccccc1 = condition not met
12) CC1=CC(=O)CCC12CCOC2=O (centres undefined) = condition not met
13) CO[C@@H]([CH2][Hg][O]C(=O)c1ccccc1)[C@@H]([CH2][Hg][O]C(=O)c1ccccc1)OC = condition met
14) N#CCN(CC#N)[N+](=O)[O-] = condition not met

###

- System: HOP-92 NSCLC
- test_summary: NCI-60 one-dose screen, 48 h (100 = growth as untreated, 0 = no growth, -100 = all killed)
- measurement_parameters: 10 µM unless noted
Compounds without any hit were thinned out: in the full panel of roughly 83,000, 20% have a hit.
quantity_kind: growth (%)

1) CC[C@H](C)[C@H](NC(=O)[C@H]1CCCCN1C)C(=O)N(C)[C@H](CCc1nc(C(=O)N[C@@H](Cc2ccccc2)C[C@H](C)C(=O)O)cs1)C(C)C = 30.3
2) Cc1ccc(S(=O)(=O)n2cc([C@@]3(O)C[C@H](CSC#N)OC3=O)c3ccccc32)cc1 = -28.2
3) O=C(O)c1cc([N+](=O)[O-])cc([N+](=O)[O-])c1 = 88.2
4) C[C@@]12CCCc3coc(c31)C(=O)c1cc3c(cc12)C(=O)C1=C(NCCS1(=O)=O)C3=O = -30.6
5) CC/C(Cc1ccccc1)=C(\c1ccc(OCCN2CCCC2)cc1)c1ccc(OC(=O)NCc2ccccc2)cc1 = 38.6
6) C[Se]/C=C1/C(=O)N(c2c(Cl)cccc2Cl)c2ccccc21 = 15.7

###

- Tested on: MDA-MB-231 breast
- test_summary: NCI-60 one-dose screen, 48 h (100 = growth as untreated, 0 = no growth, -100 = all killed)
- measurement_parameters: 10 µM unless noted
About 83,000 compounds went through this panel and 20% of them were active in at least one assay; those are over-represented in the sample as a whole. Active and inactive are the calls of the source. Rule for the calls: active = growth percent below 10; inactive = the rest.
Each entry below carries its reported growth.
quantity_kind: growth

1) Cn1cc(-c2csc(-c3cn(CCCCN4CCOCC4)c4ccc(F)cc34)n2)c2cccnc21 = 35.2% (inactive)
2) Oc1cc(N2CC2)c(O)cc1N1CC1 = 96.9% (inactive)
3) C=CC1CN2CCC1CC2C(O)c1ccnc2ccccc12 (stereo unspecified) = 125% (inactive)
4) Nc1ccc2c(c1)Cc1cc(N)ccc1-2 = 75.6% (inactive)
5) COc1cc(-c2ccc(N)c(OC)c2)ccc1N = 103% (inactive)
6) CC1(C)N=C(N)N=C(N)N1c1ccc(CCC(=O)Nc2ccc(S(=O)(=O)F)cc2)cc1 = 76.4% (inactive)

###

- Tested on: NCI-H23 lung
- test_summary: NCI-60 one-dose screen, 48 h
- measurement_parameters: 10 µM unless noted
The panel holds about 83,000 compounds, 20% with a hit somewhere; the sample as a whole holds those more often. Activity calls are given as the source filed them. Rule for the calls: active = growth percent below 10; inactive = the rest.
Possible outcomes: class 1 = active, class 0 = inactive

1. N#CC(C#N)=Cc1cccc(F)c1 = class 0
2. O=C1NC(=O)C(=C/C=C/c2ccccc2)C(=O)N1 = class 1
3. O=c1c2ccccc2nc(-c2ccccc2Cl)n1-c1nnc(C(F)(F)F)s1 = class 1
4. O=C=Nc1ccc(Br)cc1 = class 0
5. N[C@@H](CCC(=O)CCl)C(=O)O = class 0
6. CN1C2CCC1[C@@H](COC(=O)c1ccccc1)[C@@H](O)C2 (stereo not given in full) = class 0
7. COC(=O)C12C3C4C1C1C2C3C41NC(=O)c1csc([C@@H](C[C@H](C(C)C)N(C)C(=O)[C@@H](NC(=O)[C@H]2CCCCN2C)C2CC2)OC(C)=O)n1 (stereo not given in full) = class 0
8. COC1C(O)CC(OC2CC(Oc3cc4cc5c(c(O)c4c(O)c3C)C(=O)[C@@H](OC3CC(OC4CC(OC6CC(C)(O)C(OC(C)=O)C(C)O6)C(O)C(C)O4)C(O)C(C)O3)[C@H]([C@H](OC)C(=O)[C@@H](O)[C@@H](C)O)C5)OC(C)C2OC(C)=O)OC1C (stereo not given in full) = class 1
9. Oc1ccccc1C=NCCN=Cc1ccccc1O = class 0
10. Oc1cc(N2CC2)c(O)cc1N1CC1 = class 1
11. O=C(CBr)OCCOC(=O)CBr = class 0
12. O=C(O)c1ccccc1N(CCO)CCCl = class 0
13. C/C(=C\c1ccn(-c2ccc(N)cc2F)n1)[C@@H]1C[C@@H]2O[C@]2(C)CCC[C@H](C)[C@H](O)[C@@H](C)C(=O)C(C)(C)[C@@H](O)CC(=O)O1 = class 0
14. Cc1cc[c-]cc1.Fc1c[c-]c(-c2ccccn2)c(F)c1.N#CCC[PH+](CCC#N)c1ccccc1.[Pt+2] = class 0
15. O=[N+]([O-])c1c(Cl)cc(Cl)c([N+](=O)[O-])c1Cl = class 0
16. NC(=O)Oc1cc(OC(N)=O)cc(N(CCCl)CCCl)c1 = class 0
17. COc1ccc2c(c1)c(-c1nc(-c3c[nH]c4ncccc34)cs1)cn2CCCCN1CCOCC1 = class 0
18. S=P(SP(=S)(c1ccccc1)c1ccccc1)(c1ccccc1)c1ccccc1 = class 0
19. O=NN(c1ccccc1)c1ccccc1 = class 0
20. CC1=C2[C@H]3OC(=O)[C@@H](C)[C@@H]3CC[C@@]2(C)C=CC1=O = class 0
21. O=C1c2ccccc2C(=O)N1N1CC1c1ccccc1 (stereo not given) = class 0
22. O=C(O)CNCP(=O)(O)O = class 0
23. CSc1cc(/C=C(\C)[C@@H]2C[C@@H]3O[C@]3(C)CCC[C@H](C)[C@H](O)[C@@H](C)C(=O)C(C)(C)[C@@H](O)CC(=O)O2)n(CCNC(=O)OC(C)(C)C)n1 = class 0
24. Cc1ccc(P(=O)(O)O)cc1 = class 0
25. C#Cc1cccc(Nc2nc(Cl)nc3cc(NC(=O)CF)ccc23)c1 = class 0
